TGT: cIAP-1 bir3 domain (GST-HIAP2 (cIAP-1) BIR3) (Homo sapiens, UniProt Q13490)
Sequence (Q13490 251-363): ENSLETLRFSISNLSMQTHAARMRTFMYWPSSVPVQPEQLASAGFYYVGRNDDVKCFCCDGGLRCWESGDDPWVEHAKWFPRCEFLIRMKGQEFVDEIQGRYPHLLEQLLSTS
ASSAY PROCEDURE: Fluorescence polarization-based competition assay, cIAP-1
DETAILS: Ki calculated from displacement of fluorescent probe; read-out: Fluorescent polarization (FP) assay cIAP-1
pKi: −log10 of the molar value.
QUANTITY NAME: pKi

Request: Please tell me: pKi of CN[C@@H](C)C(=O)N[C@H](C(=O)N1CCC[C@H]1C(=O)N[C@@H]1CCCc2ccccc21)[C@@H](C)OCC#CC#CCO[C@H](C)[C@H](NC(=O)[C@H](C)NC)C(=O)N1CCC[C@H]1C(=O)N[C@@H]1CCCc2ccccc21 , system cIAP-1 bir3 domain (GST-HIAP2 (cIAP-1) BIR3) (Homo sapiens, UniProt Q13490)?
Response: ≥ 8.30

Request: Would you kindly repeat that for CN[C@@H](C)C(=O)N[C@@H](COCc1ccc(-c2ccc(COC[C@H](NC(=O)[C@H](C)NC)C(=O)N3CCC[C@H]3CN(CCc3ccccc3)C(=O)C(F)(F)F)cc2)cc1)C(=O)N1CCC[C@H]1CN(CCc1ccccc1)C(=O)C(F)(F)F ?
Response: ≥ 7.00

Request: Would you kindly repeat that for CN[C@@H](C)C(=O)N[C@H](C(=O)N1CCC[C@H]1CN(CCc1ccccc1)C(=O)C(F)(F)F)[C@@H](C)OCC#CC#CCO[C@H](C)[C@H](NC(=O)[C@H](C)NC)C(=O)N1CCC[C@H]1CN(CCc1ccccc1)C(=O)C(F)(F)F ?
Response: ≤ 7.00

Request: Would you kindly repeat that for CN[C@@H](C)C(=O)N[C@H](C(=O)N1CCC[C@H]1CN(CCc1ccccc1)C(=O)c1ccccc1)[C@@H](C)OCC#CC#CCO[C@H](C)[C@H](NC(=O)[C@H](C)NC)C(=O)N1CCC[C@H]1CN(CCc1ccccc1)C(=O)c1ccccc1 ?
Response: ≥ 7.00

Request: Would you kindly repeat that for CN[C@@H](C)C(=O)N[C@H](C(=O)N1CCC[C@H]1CN(CCc1ccccc1)C(=O)[C@H](N)Cc1ccc(OC)cc1)[C@@H](C)OCC#CC#CCO[C@H](C)[C@H](NC(=O)[C@H](C)NC)C(=O)N1CCC[C@H]1CN(CCc1ccccc1)C(=O)[C@H](N)Cc1ccc(OC)cc1 ?
Response: ≥ 7.00

----------
TGT: cIAP-2 bir3 domain (GST-HIAP1(cIAP-2) BIR3) (Homo sapiens, UniProt Q13489)
Sequence (Q13489 236-349): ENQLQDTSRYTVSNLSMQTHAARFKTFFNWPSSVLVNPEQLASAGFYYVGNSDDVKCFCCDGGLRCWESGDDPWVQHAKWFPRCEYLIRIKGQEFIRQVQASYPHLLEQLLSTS
ASSAY PROCEDURE: Fluorescence polarization-based competition assay, cIAP-2
DETAILS: Ki calculated from displacement of fluorescent probe; read-out: Fluorescent polarization (FP) assay cIAP-2
Description: GST-HIAP1(cIAP-2) BIR3: HIAP1 coding sequence from amino acids 236-349, cloned into PGex4T3 via BamH1 and XhoI. The plasmid was transformed into E. coli DH5α for use in protein expression and purification. […] For all assays, the fluorescence and fluorescence-polarization was evaluated using a Tecan Polarion instrument with the excitation filter set at 485 nm and the emission filter set at 535 nm. […]
pKi: −log10 of the molar value.
Please provide measured pKi for the entries that follow.

Request: Form field: reported pKi of CN[C@@H](C)C(=O)N[C@H](C(=O)N1CCC[C@H]1CN(CCc1ccccc1)C(=O)[C@H](N)Cc1ccc(OC)cc1)[C@@H](C)OCC#CC#CCO[C@H](C)[C@H](NC(=O)[C@H](C)NC)C(=O)N1CCC[C@H]1CN(CCc1ccccc1)C(=O)[C@H](N)Cc1ccc(OC)cc1 [Compound 2]
Response: ≤ 7.00

Request: Would you kindly repeat that for CN[C@@H](C)C(=O)N[C@H](C(=O)N1CCC[C@H]1CN(CCc1ccccc1)C(=O)c1ccccc1)[C@@H](C)OCC#CC#CCO[C@H](C)[C@H](NC(=O)[C@H](C)NC)C(=O)N1CCC[C@H]1CN(CCc1ccccc1)C(=O)c1ccccc1 [Compound 3] ?
Response: ≥ 8.30

Request: Would you kindly repeat that for CN[C@@H](C)C(=O)N[C@@H](COCc1ccc(-c2ccc(COC[C@H](NC(=O)[C@H](C)NC)C(=O)N3CCC[C@H]3CN(CCc3ccccc3)C(=O)C(F)(F)F)cc2)cc1)C(=O)N1CCC[C@H]1CN(CCc1ccccc1)C(=O)C(F)(F)F [Compound 12] ?
Response: ≥ 8.30

Request: Would you kindly repeat that for CN[C@@H](C)C(=O)N[C@@H](COCc1ccc(COC[C@H](NC(=O)[C@H](C)NC)C(=O)N2CCC[C@H]2CN(CCc2ccccc2)C(=O)C(F)(F)F)cc1)C(=O)N1CCC[C@H]1CN(CCc1ccccc1)C(=O)C(F)(F)F [Compound 11] ?
Response: ≤ 7.00
